- targetSystem: T1, biotinylated goat anti-human kappa light chain
- T1 construct: Positive control of the ELISA
- measurementNotes: ELISA; positive control; also: test concentration or dose not given here
optical density values, listed per item
Please make sure the unit comes right after the number.

Recorded optical density (binder 369_C10 (antibody, V domains shown, VH/VL only) VH: EVQLLESGGGLVQPGGSLRLSCAASGFTFSSYSMNWVRQAPGKGLEWVANINYNGGYTSYADSVKGRFTISRDNSKNTLYLQMNSLRAEDTAVYYCARSATWHDTALDYWGQGTLVTVSS VL: DIQMTQSPSSLSASVGDRVTITCRASQSIVTYLNWYQQKPGKAPKLLIYAATSLHSGVPSRFSGSGSGTDFTLTISSLQPEDFATYYCQQSDSLPLTFGGGTKVEIK ): 3.37 OD

Recorded optical density (binder 374_A11 (antibody, V domains shown, VH/VL only) VH: EVQLLESGGGLVQPGGSLRLSCAASGFTFSDYSMNWVRQAPGKGLEWVANINYNSGYKGYADSVKGRFTISRDNSKNTLYLQMNSLRAEDTAVYYCARSATWHDTHLDYWGQGTLVTVSS VL: DIQMTQSPSSLSASVGDRVTITCRASQSILSYVNWYQQKPGKAPKLVIYAATSRASGVPSRFSGSGSGTDFTLTISSLQPEDFATYYCQQSYSSPLTFGGGTKVEIK ): 2.81 OD

Recorded optical density (binder 375_D12 (antibody, V domains shown, VH/VL only) VH: EVQLLESGGGLVQPGGSLRLSCAASGFTFDSYGMNWVRQAPGKGLEWVSSINYNSGYTSYADSVKGRFTISRDNSKNTLYLQMNSLRAEDTAVYYCARSANWHDTALDYWGQGTLVTVSS VL: DIQMTQSPSSLSASVGDRVTITCRASQSILTYVNWYQQKPGKAPKLVIYAATSRASGVPSRFSGSGSGTDFTLTISSLQPEDFATYYCQQSYETPLTFGGGTKVEIK ): 3.23 OD

Recorded optical density (binder 367_A01 (antibody, V domains shown, VH/VL only) VH: EVQLLESGGGLVQPGGSLRLSCAASGFTFSSYSMNWVRQAPGKGLEWVASINYNGGYTGYADSVKGRFTISRDNSKNTLYLQMNSLRAEDTAVYYCARSATWHDTHLDYWGQGTLVTVSS VL: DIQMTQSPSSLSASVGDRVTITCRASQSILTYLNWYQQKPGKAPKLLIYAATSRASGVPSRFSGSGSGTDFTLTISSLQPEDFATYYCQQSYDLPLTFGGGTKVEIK ): 3.51 OD

Recorded optical density (binder 373_E04 (antibody, V domains shown, VH/VL only) VH: EVQLLESGGGLVQPGGSLRLSCAASGFTFDSYSMNWVRQAPGKGLEWVAGINYNGGYTSYADSVKGRFTISRDNSKNTLYLQMNSLRAEDTAVYYCARSATWHDTHLDYWGQGTLVTVSS VL: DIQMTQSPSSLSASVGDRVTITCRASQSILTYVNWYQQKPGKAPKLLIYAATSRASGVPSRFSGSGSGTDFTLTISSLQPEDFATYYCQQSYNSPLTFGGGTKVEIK ): 3.3 OD
